Reported DC50 is given for each of the following compounds.
# TEST TARGET: STAT6 (endogenous, HiBiT-tagged) in HeLa LgBiT clone 4.14 cells (Homo sapiens, UniProt P42226)
# Construct: These cells express endogenous STAT6; host or cells: HeLa LgBiT clone 4.14
# Sequence (P42226 1-847): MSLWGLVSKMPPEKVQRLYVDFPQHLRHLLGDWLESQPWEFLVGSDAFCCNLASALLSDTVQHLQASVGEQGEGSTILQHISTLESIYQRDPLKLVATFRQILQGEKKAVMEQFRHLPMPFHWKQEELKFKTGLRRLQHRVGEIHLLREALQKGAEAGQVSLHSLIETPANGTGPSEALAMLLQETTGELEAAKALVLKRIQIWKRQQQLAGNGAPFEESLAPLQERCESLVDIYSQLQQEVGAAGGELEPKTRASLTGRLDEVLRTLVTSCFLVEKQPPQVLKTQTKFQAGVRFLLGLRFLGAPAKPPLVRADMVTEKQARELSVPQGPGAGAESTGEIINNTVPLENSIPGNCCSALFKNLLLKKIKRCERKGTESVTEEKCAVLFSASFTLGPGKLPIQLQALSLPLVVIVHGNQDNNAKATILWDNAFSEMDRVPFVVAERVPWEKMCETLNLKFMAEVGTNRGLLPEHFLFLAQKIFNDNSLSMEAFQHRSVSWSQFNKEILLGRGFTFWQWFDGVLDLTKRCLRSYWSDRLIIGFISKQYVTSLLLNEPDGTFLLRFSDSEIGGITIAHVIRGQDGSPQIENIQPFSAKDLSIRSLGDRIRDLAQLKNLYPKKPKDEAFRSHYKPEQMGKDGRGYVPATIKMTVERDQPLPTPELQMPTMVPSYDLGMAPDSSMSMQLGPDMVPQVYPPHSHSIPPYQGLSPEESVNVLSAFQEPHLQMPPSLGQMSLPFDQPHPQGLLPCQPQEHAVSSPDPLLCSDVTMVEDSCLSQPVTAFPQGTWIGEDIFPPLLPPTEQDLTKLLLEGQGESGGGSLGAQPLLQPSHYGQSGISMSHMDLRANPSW
# ASSAY: STAT6 Degrader Assay (HiBiT based, HeLa LgBiT clone 4.14 cells, luminescence, DC50)
# Format: cell-based
# CONDITION: DC50 provided for test compounds with >80% Emax, geometric mean, read-out: STAT6 degradation DC50
# Protocol: This was a HiBit based assay. A HeLa cell line stably transfected with a small protein, LgBit (Large Bit) was obtained from Promega. These cells express endogenous STAT6. […] Single cell clones were prepared and the clone 4.14 was selected for the assay based on that clone showing high luminescence, high STAT6 phosphorylation upon stimulation with IL-4, and inhibition of luminescence when cells were treated with STAT6 siRNA. […]

{"COMPOUND": "C[C@@H](c1cc2c(-c3ccc(N)nc3)ccnc2n1C)N1CCC(c2ccc(C(=O)N3CCn4nc(CN5CCC(c6ccc(NC7CCC(=O)NC7=O)cc6F)CC5)cc4C3)cc2)CC1 (some centres unmarked)", "DC50 / nM": 1}
{"COMPOUND": "Cn1c(CN2CCC(c3ccc(C(=O)N4CCN(C(=O)CN5CCC(c6ccc(OC7CCC(=O)NC7=O)cc6F)CC5)CC4)cc3)CC2)cc2c(-c3ccc4[nH]ncc4c3)ccnc21 (centres unmarked)", "DC50 / nM": 8.1}
{"COMPOUND": "Cn1c(CN2CCC(c3ccc(C(=O)N4CCC(CN5CCC(N6CCN(c7ccc(NC8CCC(=O)NC8=O)cc7F)CC6)C(F)(F)C5)CC4)cc3)CC2)cc2c(-c3ccc(N)nc3)ccnc21 (centres unmarked)", "DC50 / nM": 61}
{"COMPOUND": "Cn1c(CN2CCC(c3ccc(C(=O)N4CCC(CN5CCC(N6CCN(c7ccc(NC8CCC(=O)NC8=O)cc7F)CC6)C(F)(F)C5)CC4)cc3)CC2)cc2c(-c3ccc4[nH]ncc4c3)ccnc21 (centres unmarked)", "DC50 / nM": 36.9}
{"COMPOUND": "CC(c1cc2c(-c3ccc(N)nc3)ccnc2n1C)N1CCC(c2ccc(C(=O)N3CCC(CN4CCN(c5ccc(N[C@@H]6CCC(=O)NC6=O)cc5F)CC4)CC3)cc2)CC1 (single isomer, unassigned)", "DC50 / nM": 17.7}

* * *

# TEST TARGET: human STAT6 (truncated, aa122-658, with N-terminal His-tag) (Homo sapiens, UniProt P42226)
# Construct: Human STAT6 (truncated, aa122-658, with N-terminal His-tag, expressed in insect cells); His-tag (N)
# Sequence (P42226 122-658): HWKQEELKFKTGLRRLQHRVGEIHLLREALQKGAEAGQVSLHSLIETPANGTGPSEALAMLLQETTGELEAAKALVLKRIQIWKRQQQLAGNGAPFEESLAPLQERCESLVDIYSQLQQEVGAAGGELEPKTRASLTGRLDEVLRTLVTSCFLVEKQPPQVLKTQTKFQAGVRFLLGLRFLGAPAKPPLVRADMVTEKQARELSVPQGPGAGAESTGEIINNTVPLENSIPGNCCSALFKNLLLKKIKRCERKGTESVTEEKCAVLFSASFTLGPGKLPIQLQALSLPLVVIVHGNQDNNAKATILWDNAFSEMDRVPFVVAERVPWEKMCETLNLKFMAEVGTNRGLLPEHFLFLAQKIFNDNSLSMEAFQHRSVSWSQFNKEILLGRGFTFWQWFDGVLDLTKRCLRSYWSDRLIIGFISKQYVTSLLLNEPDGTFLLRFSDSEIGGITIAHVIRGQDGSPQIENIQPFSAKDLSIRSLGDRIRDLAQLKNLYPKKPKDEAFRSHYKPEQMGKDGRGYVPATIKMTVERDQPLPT
# ASSAY: Surface Plasmon Resonance (SPR) assay: binding of compounds to immobilized human STAT6
# CONDITION: immobilized human STAT6 (aa122-658), 25° C.; geometric mean

{"COMPOUND": "Cn1c(CN2CCC(c3ccc(C(=O)N4CCC(CN5CCC(n6ncc7cc(NC8CCC(=O)NC8=O)ccc76)CC5)CC4)cc3)CC2)cc2c(-c3ccc4[nH]ncc4c3)ccnc21 (stereo not shown)", "PREFIX OPERATOR": "<", "Kd, nM": 20}
{"COMPOUND": "Cn1c(CN2CCC(c3ccc(C(=O)N4CCC(CN5CCN(c6ccc(NC7CCC(=O)NC7=O)cc6F)CC5)CC4)cc3)CC2)cc2c(-c3ccc4[nH]ncc4c3)ccnc21 (stereo not shown)", "PREFIX OPERATOR": "=", "Kd, nM": 193}
{"COMPOUND": "Cn1c(CN2CCC(c3ccc(C(=O)N4CCN(C(=O)CN5CCC(c6ccc(OC7CCC(=O)NC7=O)cc6F)CC5)CC4)cc3)CC2)cc2c(-c3ccc4[nH]ncc4c3)ccnc21 (stereo not shown)", "PREFIX OPERATOR": "=", "Kd, nM": 105}
{"COMPOUND": "Cn1c(CN2CCC(c3ccc(C(=O)N4CCC(CN5CCN(c6ccc(NC7CCC(=O)NC7=O)cc6F)CC5)CC4)cc3)CC2)cc2c(-c3cnc(N)c(F)c3)ccnc21 (stereo not shown)", "PREFIX OPERATOR": "<", "Kd, nM": 20}

* * *

# TEST TARGET: human STAT6 (truncated, aa122-658, with N-terminal His-tag) (Homo sapiens, UniProt P42226)
# Construct: Human STAT6 (truncated, aa122-658, with N-terminal His-tag, expressed in insect cells); His-tag (N)
# Sequence (P42226 122-658): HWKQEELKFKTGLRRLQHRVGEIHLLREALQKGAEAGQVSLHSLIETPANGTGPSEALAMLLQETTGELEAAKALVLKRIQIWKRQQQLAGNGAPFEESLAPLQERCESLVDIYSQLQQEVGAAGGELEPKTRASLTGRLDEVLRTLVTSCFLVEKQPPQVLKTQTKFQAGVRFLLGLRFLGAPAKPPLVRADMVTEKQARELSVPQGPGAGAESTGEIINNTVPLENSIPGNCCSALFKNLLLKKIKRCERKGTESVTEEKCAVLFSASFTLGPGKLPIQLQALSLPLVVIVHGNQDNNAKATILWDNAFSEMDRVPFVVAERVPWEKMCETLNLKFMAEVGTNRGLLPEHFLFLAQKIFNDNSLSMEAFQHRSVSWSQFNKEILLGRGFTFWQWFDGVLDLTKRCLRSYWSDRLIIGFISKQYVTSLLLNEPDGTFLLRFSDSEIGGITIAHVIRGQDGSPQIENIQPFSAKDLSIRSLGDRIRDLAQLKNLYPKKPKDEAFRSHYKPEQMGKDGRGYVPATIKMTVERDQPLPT
# ASSAY: Surface Plasmon Resonance (SPR) assay: binding of compounds to immobilized human STAT6
# CONDITION: immobilized human STAT6 (aa122-658), 25° C.; geometric mean
pKd: −log10 of the molar value.
ENDPOINT NAME: pKd

{"COMPOUND": "Cn1c(CN2CCC(c3ccc(C(=O)N4CCN(C(=O)CN5CCC(c6ccc(NC7CCC(=O)NC7=O)cc6F)CC5)CC4)cc3)CC2)cc2c(-c3ccc4[nH]ncc4c3)ccnc21 (centres unmarked)", "PREFIX OPERATOR": "=", "MEASURED VALUE": 6.65}
{"COMPOUND": "Cn1c(CN2CCC(c3ccc(C(=O)N4CCC(CN5CCN(C(=O)c6ccc(NC7CCC(=O)NC7=O)cc6F)CC5)CC4)cc3)CC2)cc2c(-c3ccc4[nH]ncc4c3)ccnc21 (centres unmarked)", "PREFIX OPERATOR": ">", "MEASURED VALUE": 7.70}
{"COMPOUND": "Cn1c(CN2CCC(c3ccc(C(=O)N4CCN(C(=O)CN5CCN(c6ccc(NC7CCC(=O)NC7=O)cc6F)CC5)CC4)cc3)CC2)cc2c(-c3ccc4[nH]ncc4c3)ccnc21 (centres unmarked)", "PREFIX OPERATOR": "=", "MEASURED VALUE": 7.21}
{"COMPOUND": "Cn1c(CN2CCC(c3ccc(C(=O)N4CCC(CN5CCC(c6ccc(NC7CCC(=O)NC7=O)cc6F)CC5)CC4)cc3)CC2)cc2c(-c3ccc4[nH]ncc4c3)ccnc21 (centres unmarked)", "PREFIX OPERATOR": "=", "MEASURED VALUE": 6.33}
